# METHOD SUMMARY: Human HepG2 cell viability assay in 384 well format
# Format: toxicity, cell-based
# Design: dose 125 nL, time 70.5 hour; concentration not given beside the values
# TEST CONTEXT: HepG2 cells, read-out: Inhibition
Record form. Attribute: cytotoxicity at 70.5 h. Fill in for each entry.
// units = %; emit number, no label

Query: Which cytotoxicity at 70.5 h value is on record for COc1cccc(C(=O)NC(CC(=O)O)c2cccs2)c1OC (stereo unspecified) ?
Result: -9.47

Query: Which cytotoxicity at 70.5 h value is on record for CC(O)CN(Cc1cccc(C(N)=O)c1)c1ccccc1 (stereo unspecified) ?
Result: -7.27

Query: Which cytotoxicity at 70.5 h value is on record for CN(CC(=O)N(C)C1CCCCC1)C1CCc2ccccc21 (stereo unspecified) ?
Result: -3.54

Query: Which cytotoxicity at 70.5 h value is on record for CCNC(=O)C1CCCN(c2cccc(C(F)(F)F)n2)C1 (stereo unspecified) ?
Result: 21.5

Query: Which cytotoxicity at 70.5 h value is on record for CCc1[nH]ncc1C(=O)N1CCOC(c2nc(C)n[nH]2)C1 (stereo unspecified) ?
Result: -2.8

Query: Which cytotoxicity at 70.5 h value is on record for CCOC1COC2(CCN(Cc3ccc4c(c3)OCO4)CC2)C1 (stereo unspecified) ?
Result: -9.87

Query: Which cytotoxicity at 70.5 h value is on record for Cc1cccc(C(C(=O)N2CC(Oc3ccccc3F)C2)N(C)C)c1 (stereo unspecified) ?
Result: -1.02

Query: Which cytotoxicity at 70.5 h value is on record for COc1cn(-c2ccccc2)nc1C(=O)NCCCN1CCCC(C)C1 (stereo unspecified) ?
Result: -11.2

Query: Which cytotoxicity at 70.5 h value is on record for CC(Oc1ccc2c(c1)OCO2)C(=O)N1CCC(N2CCCC2)CC1 (stereo unspecified) ?
Result: -4.56

Query: Which cytotoxicity at 70.5 h value is on record for `CSCCc1n[nH]c2c1CN(S(=O)(=O)c1c(C)nn(C)c1C)CC2` ?
Result: 17.2

Query: Which cytotoxicity at 70.5 h value is on record for CC1CS(=O)(=O)CCN1CCCc1ccc(Cl)cc1 (stereo unspecified) ?
Result: -6.15

Query: Which cytotoxicity at 70.5 h value is on record for `Cn1cnnc1-c1cncc(NCc2ccccc2Br)c1` ?
Result: 13.6

Query: Which cytotoxicity at 70.5 h value is on record for `Cc1noc([C@@H]2CCCN2C(=O)C2CCN(CC(N)=O)CC2)n1` ?
Result: -5.63

Query: Which cytotoxicity at 70.5 h value is on record for `C=C(C)CSc1nnc(CCNC(=O)OC(C)(C)C)o1` ?
Result: -12.3

Query: Which cytotoxicity at 70.5 h value is on record for Cc1csc(NC(=O)c2cnc(C3CCCN(C)C3)cn2)n1 (stereo unspecified) ?
Result: -8.15

Query: Which cytotoxicity at 70.5 h value is on record for Nc1ncc(-c2ccc(F)cc2)c(C2CCCNC2)n1 (stereo unspecified) ?
Result: 24.3

Query: Which cytotoxicity at 70.5 h value is on record for COCCC1(CO)CCCN(Cc2ccc(C(F)(F)F)cc2)C1 (stereo unspecified) ?
Result: -4.92

Query: Which cytotoxicity at 70.5 h value is on record for `COCC1CCN(C(=O)c2cc(O)nc(CC(C)C)c2)CC1` ?
Result: -7.27

Query: Which cytotoxicity at 70.5 h value is on record for `NC(=O)c1cnc2n1CCN(C(=O)c1cccc(Cn3cccn3)c1)C2` ?
Result: -5.38

Query: Which cytotoxicity at 70.5 h value is on record for CCOc1cccc(CNC(=O)N2CCC(Cc3cnn(C)c3)C2)c1 (stereo unspecified) ?
Result: -13.7

Query: Which cytotoxicity at 70.5 h value is on record for `NC(=O)CCC(=O)N1CCc2[nH]nc(-c3ccc4c(c3)OCO4)c2C1` ?
Result: -5.52

Query: Which cytotoxicity at 70.5 h value is on record for Cc1cnc(C(=O)N2CCOCC2C)cn1 (stereo unspecified) ?
Result: -16.2

Query: Which cytotoxicity at 70.5 h value is on record for `COc1cccc(C(=O)N2CCN(C(=O)CCn3ccnc3)CC2)c1` ?
Result: -5.33

Query: Which cytotoxicity at 70.5 h value is on record for `O=C(c1ccc(-c2ccc(O)nc2)s1)N1CCSCC1` ?
Result: -14

Query: Which cytotoxicity at 70.5 h value is on record for COc1nc(C)ccc1CNC(=O)NC(C)Cc1c(C)nn(C)c1C (stereo unspecified) ?
Result: -9.98

Query: Which cytotoxicity at 70.5 h value is on record for `O=C(O)CCc1nc2nccc(C(F)(F)F)n2n1` ?
Result: 0.723
